B1: TPR t1 (parent)
chain: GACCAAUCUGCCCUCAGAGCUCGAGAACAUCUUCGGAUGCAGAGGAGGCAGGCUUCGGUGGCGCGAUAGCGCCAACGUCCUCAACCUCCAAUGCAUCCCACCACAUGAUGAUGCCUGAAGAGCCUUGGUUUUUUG

# Variants of: B1
# experimental_protocol: polymerase ribozyme fitness, log enrichment relative to wild type (log ratio); higher = more active; in vitro selection for triplet polymerase activity
measured_endpoint: polymerase ribozyme fitness (log ratio)
One number for each entry.

Some variants with recorded polymerase ribozyme fitness (log ratio):
{"variant_notation": "G45C G69A U87C U130C", "polymerase ribozyme fitness (log ratio)": -2.8}
{"variant_notation": "G35A G51A G60U C124U", "polymerase ribozyme fitness (log ratio)": -6.94}
{"variant_notation": "G69A G120U", "polymerase ribozyme fitness (log ratio)": -2.36}

Please supply polymerase ribozyme fitness (log ratio) for each of the following items, keeping them in order.
1. G48C G57A
2. A50C U92G U112A G135A
3. C88U C101U
4. A66U A105U
5. C76U C88U
6. A16U C70A
7. C3A A111C G128U U129A

Output:
[-0.626, -3.14, -0.588, -4.44, -0.561, -3.19, -1.89]

Please supply polymerase ribozyme fitness (log ratio) for each of the following items, keeping them in order.
1. C64U A75U U116G G122A C124G
2. C11G U33G G93U U112A G122U
3. U96A A121C
4. C40G C70G
5. G120C U132C

Output:
1. 0.737
2. -6.28
3. 1.1
4. -4.89
5. 1.38
